- Tested On: Epidermal Growth Factor Receptor (EGFR), extracellular domain (EGFR-ECD) (Homo sapiens, UniProt P00533)
- Construct: full-length EGFR in DiscoverX PathHunter enzyme-complementation cells, EGF-stimulated
- Sequence (P00533 25-1210): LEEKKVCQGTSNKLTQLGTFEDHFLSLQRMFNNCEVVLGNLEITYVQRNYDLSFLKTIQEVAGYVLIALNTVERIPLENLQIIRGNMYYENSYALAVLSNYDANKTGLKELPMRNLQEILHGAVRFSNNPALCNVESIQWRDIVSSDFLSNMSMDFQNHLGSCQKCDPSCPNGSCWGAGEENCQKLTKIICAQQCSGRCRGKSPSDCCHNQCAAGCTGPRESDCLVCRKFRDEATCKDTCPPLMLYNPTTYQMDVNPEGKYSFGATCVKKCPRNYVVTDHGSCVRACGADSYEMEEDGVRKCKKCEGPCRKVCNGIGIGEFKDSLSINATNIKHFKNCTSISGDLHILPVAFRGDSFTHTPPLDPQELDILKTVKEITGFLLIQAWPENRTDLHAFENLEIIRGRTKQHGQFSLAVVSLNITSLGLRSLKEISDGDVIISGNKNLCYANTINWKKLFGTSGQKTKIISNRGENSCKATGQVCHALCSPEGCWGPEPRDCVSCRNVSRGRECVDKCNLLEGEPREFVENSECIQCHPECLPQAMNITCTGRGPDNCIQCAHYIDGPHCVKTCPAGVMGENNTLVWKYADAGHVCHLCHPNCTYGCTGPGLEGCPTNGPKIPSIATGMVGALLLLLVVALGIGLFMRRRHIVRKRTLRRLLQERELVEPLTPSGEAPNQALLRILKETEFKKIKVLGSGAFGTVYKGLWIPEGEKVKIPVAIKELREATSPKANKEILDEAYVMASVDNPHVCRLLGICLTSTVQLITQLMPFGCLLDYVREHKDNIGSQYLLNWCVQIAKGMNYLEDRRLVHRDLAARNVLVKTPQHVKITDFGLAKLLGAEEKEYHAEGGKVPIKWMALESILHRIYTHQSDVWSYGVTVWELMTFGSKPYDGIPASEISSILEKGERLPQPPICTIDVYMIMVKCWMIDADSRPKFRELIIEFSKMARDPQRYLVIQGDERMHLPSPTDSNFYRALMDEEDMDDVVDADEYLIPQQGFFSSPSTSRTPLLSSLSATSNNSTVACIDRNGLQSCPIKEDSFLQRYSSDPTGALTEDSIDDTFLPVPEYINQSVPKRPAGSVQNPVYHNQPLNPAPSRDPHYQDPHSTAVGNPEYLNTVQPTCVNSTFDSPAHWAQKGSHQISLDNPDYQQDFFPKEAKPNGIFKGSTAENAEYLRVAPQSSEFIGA
- Assay Notes: cell-based
- Design: DiscoverX PathHunter EGFR dimerization/activation assay, chemiluminescence
- Experimental: The inhibition of the EGFR dimerization assay was conducted using the PathHunter kit following the producer instructions and with cetuximab as a positive control. […] Our interest in kinase inhibitors and the readily availability of such kit prompted us to start a campaign for the discovery of small molecules targeting the extracellular domain of EGFR.
Reported Endpoint: inhibition at 50 µM (%)
Field format: number, assumed %, no unit text.

Query :: Report inhibition at 50 µM for COc1ccc2c(C)c(CC(=O)Nc3ccc(C(=O)O)cc3)c(=O)oc2c1 please.
Result :: 0

Query :: Report inhibition at 50 µM for O=C(Nc1ccc(Nc2cc(-c3ccccc3)ncn2)cc1)Nc1ccc(C(=O)O)cc1 please.
Result :: 44

Query :: Report inhibition at 50 µM for CCOC(=O)c1cc2cnc(O)nc2oc1=O please.
Result :: 0

* * *

- Tested On: Epidermal Growth Factor Receptor (EGFR), extracellular domain (EGFR-ECD) (Homo sapiens)
- Construct: full-length EGFR in DiscoverX PathHunter enzyme-complementation cells, EGF-stimulated
- Assay Notes: cell-based
- Parameters: DiscoverX PathHunter EGFR dimerization/activation assay, chemiluminescence
Binary call on inhibition at 50 µM: MET from 10% upward, NOT MET beneath that.

Query :: Determine whether measured inhibition at 50 µM meets or exceeds 10% for CN(C)c1ccc(/C=C2/N=C(c3ccccc3)OC2=O)cc1
Result :: MET

Query :: Determine whether measured inhibition at 50 µM meets or exceeds 10% for O=C(CN1CCCCC1)Nc1ccc(NC(=O)CN2CCCCC2)c2c1C(=O)c1ccccc1C2=O
Result :: MET

Query :: Determine whether measured inhibition at 50 µM meets or exceeds 10% for CN(C)CCNc1ccc(F)c2c1C(=O)c1ccccc1C2=O
Result :: MET

Query :: Determine whether measured inhibition at 50 µM meets or exceeds 10% for O=C(O)c1ccc(-c2cc(-c3cccc(C(F)(F)F)c3)nc(O)n2)cc1
Result :: NOT MET

Query :: Determine whether measured inhibition at 50 µM meets or exceeds 10% for COC(=O)Cc1c(C)c2ccc(O)cc2oc1=O
Result :: NOT MET

Query :: Determine whether measured inhibition at 50 µM meets or exceeds 10% for O=C1OC(c2ccccc2)=N/C1=C/c1ccc[nH]1
Result :: MET

Query :: Determine whether measured inhibition at 50 µM meets or exceeds 10% for Cc1cccc(Nc2ncnc3oc(=O)c(-c4c(Cl)cccc4Cl)cc23)c1
Result :: MET

Query :: Determine whether measured inhibition at 50 µM meets or exceeds 10% for c1ccc(-c2cccc(-c3cc(-c4ccccc4)ncn3)c2)cc1
Result :: NOT MET

Query :: Determine whether measured inhibition at 50 µM meets or exceeds 10% for COc1cccc(Nc2nc(O)c3cc(-c4ccccc4)c(=O)oc3n2)c1
Result :: NOT MET

Query :: Determine whether measured inhibition at 50 µM meets or exceeds 10% for O=C1Nc2ccccc2/C1=N\c1cccc(C(F)(F)F)c1
Result :: MET

Query :: Determine whether measured inhibition at 50 µM meets or exceeds 10% for O=C1OC(c2ccccc2)=N/C1=C/c1cnc2ccccc2c1
Result :: MET

Query :: Determine whether measured inhibition at 50 µM meets or exceeds 10% for c1ccc2c(CN3CCCCC3)c3ccccc3c(CN3CCCCC3)c2c1
Result :: MET

Query :: Determine whether measured inhibition at 50 µM meets or exceeds 10% for O=C(O)c1ccc(NS(=O)(=O)c2ccc(Cl)cc2[N+](=O)[O-])cc1
Result :: MET

Query :: Determine whether measured inhibition at 50 µM meets or exceeds 10% for COc1ccc2c(C)c(CC(=O)Nc3cccc(C(=O)O)c3)c(=O)oc2c1C
Result :: NOT MET

Query :: Determine whether measured inhibition at 50 µM meets or exceeds 10% for COc1ccc(/C=C2/N=C(c3ccccc3)OC2=O)cc1
Result :: MET

Query :: Determine whether measured inhibition at 50 µM meets or exceeds 10% for N#CCc1c2ccccc2c(CC#N)c2ccccc12
Result :: NOT MET

Query :: Determine whether measured inhibition at 50 µM meets or exceeds 10% for COCCOc1ccc2c(C)c(CCC(=O)Nc3ccc(C(=O)O)cc3)c(=O)oc2c1
Result :: NOT MET

Query :: Determine whether measured inhibition at 50 µM meets or exceeds 10% for CC(=O)Nc1ccc(O)c2c1C(=O)c1ccccc1C2=O
Result :: MET

Query :: Determine whether measured inhibition at 50 µM meets or exceeds 10% for Cc1c(C)c2cc3c4c(oc3c(O)c2oc1=O)CCCC4
Result :: MET

Origin of the recorded values: paper PMC9367601
